EXPERIMENTAL_TARGET: Solute carrier family 22 member 6 (Rattus norvegicus)
ASSAY_SUMMARY: TP_TRANSPORTER: inhibition of PAH uptake in Xenopus laevis oocytes
Format: functional, cell-based, Oocyte
ENDPOINT: Ki (µM)
Just the number in µM, nothing appended.

Here's what some known entries look like.
COMPOUND: CC(=O)Nc1ccc(O)cc1
Ki (µM): 2100
//
COMPOUND: COc1ccc2c(c1)c(CC(=O)O)c(C)n2C(=O)c1ccc(Cl)cc1
Ki (µM): 10

Attention now shifts to the item below.
query: Would you kindly share the measured Ki for O=C(O)CNC(=O)c1ccccc1O ?
result: 11

---

EXPERIMENTAL_TARGET: Solute carrier family 22 member 6 (SLC22A6) (Rattus norvegicus, UniProt O35956)
Sequence (O35956 whole entry): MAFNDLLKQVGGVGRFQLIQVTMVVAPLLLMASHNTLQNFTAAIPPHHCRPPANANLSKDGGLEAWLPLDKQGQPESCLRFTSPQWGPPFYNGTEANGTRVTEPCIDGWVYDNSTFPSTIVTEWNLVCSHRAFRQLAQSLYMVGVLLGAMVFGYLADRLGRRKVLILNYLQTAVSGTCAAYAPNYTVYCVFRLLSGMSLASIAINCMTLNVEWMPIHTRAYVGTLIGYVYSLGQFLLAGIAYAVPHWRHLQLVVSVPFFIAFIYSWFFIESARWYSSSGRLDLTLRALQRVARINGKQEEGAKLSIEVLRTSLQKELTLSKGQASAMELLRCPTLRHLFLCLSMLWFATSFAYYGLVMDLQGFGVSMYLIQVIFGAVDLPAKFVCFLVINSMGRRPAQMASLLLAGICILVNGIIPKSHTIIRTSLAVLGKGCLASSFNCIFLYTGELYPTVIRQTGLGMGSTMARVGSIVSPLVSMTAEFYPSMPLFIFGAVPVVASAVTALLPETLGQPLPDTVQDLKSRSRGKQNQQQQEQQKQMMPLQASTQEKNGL
ASSAY_SUMMARY: TP_TRANSPORTER: inhibition of PAH uptake (PAH: 2 uM, Diflunisal: 1000 uM) in Xenopus laevis oocytes
Format: functional, cell-based, Oocyte
STATED_CONDITIONS: probe PAH
ENDPOINT: inhibition at 1000 µM (%)
Just the number in %, nothing appended.

query: Would you kindly share the measured inhibition at 1000 µM for O=C(O)c1cc(-c2ccc(F)cc2F)ccc1O ?
result: 100

---

EXPERIMENTAL_TARGET: Solute carrier family 22 member 6 (SLC22A6) (Rattus norvegicus, UniProt O35956)
ASSAY_SUMMARY: TP_TRANSPORTER: inhibition of PAH uptake (PAH: 2 uM, Antipyrine: 1000 uM) in Xenopus laevis oocytes
Format: functional, cell-based, Oocyte
STATED_CONDITIONS: probe PAH
ENDPOINT: inhibition at 1000 µM (%)
Just the number in %, nothing appended.

query: Would you kindly share the measured inhibition at 1000 µM for Cc1cc(=O)n(-c2ccccc2)n1C [ANTIPYRINE] ?
result: 37.8

---

EXPERIMENTAL_TARGET: Solute carrier family 22 member 6 (SLC22A6) (Rattus norvegicus, UniProt O35956)
ASSAY_SUMMARY: TP_TRANSPORTER: inhibition of PAH uptake (PAH: 2 uM, Phenylbutazone: 1000 uM) in Xenopus laevis oocytes
Assay type: functional, cell-based, Oocyte
STATED_CONDITIONS: probe PAH
ENDPOINT: inhibition at 1000 µM
Answer by giving the amount and then stating its unit.

query: Param readout = inhibition at 1000 µM; param system = Solute carrier family 22 member 6 (SLC22A6) (Rattus norvegicus, UniProt O35956); param query = CCCCC1C(=O)N(c2ccccc2)N(c2ccccc2)C1=O ; response: value
result: 98.8%

---

EXPERIMENTAL_TARGET: Solute carrier family 22 member 6 (SLC22A6) (Rattus norvegicus, UniProt O35956)
Sequence (O35956 whole entry): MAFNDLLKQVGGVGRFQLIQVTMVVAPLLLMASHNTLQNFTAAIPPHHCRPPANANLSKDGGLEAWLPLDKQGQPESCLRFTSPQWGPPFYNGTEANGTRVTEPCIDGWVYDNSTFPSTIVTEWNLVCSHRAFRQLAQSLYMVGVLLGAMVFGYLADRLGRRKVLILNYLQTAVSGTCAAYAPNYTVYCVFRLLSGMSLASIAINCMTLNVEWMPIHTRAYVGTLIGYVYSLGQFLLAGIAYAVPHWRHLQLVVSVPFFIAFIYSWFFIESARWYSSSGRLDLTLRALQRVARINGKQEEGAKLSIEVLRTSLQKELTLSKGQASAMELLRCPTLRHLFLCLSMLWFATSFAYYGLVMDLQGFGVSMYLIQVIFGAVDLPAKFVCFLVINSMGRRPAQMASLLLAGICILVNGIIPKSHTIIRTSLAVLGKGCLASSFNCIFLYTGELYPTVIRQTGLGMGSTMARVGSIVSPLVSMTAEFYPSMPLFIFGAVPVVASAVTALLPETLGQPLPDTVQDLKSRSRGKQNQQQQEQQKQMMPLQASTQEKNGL
ASSAY_SUMMARY: TP_TRANSPORTER: inhibition of PAH uptake (PAH: 2 uM, Flurbiprofen: 1000 uM) in Xenopus laevis oocytes
Type: functional, cell-based, Oocyte
STATED_CONDITIONS: probe PAH
ENDPOINT: inhibition at 1000 µM (%)
Just the number in %, nothing appended.

query: Would you kindly share the measured inhibition at 1000 µM for CC(C(=O)O)c1ccc(-c2ccccc2)c(F)c1 (stereo unspecified) ?
result: 100

---

EXPERIMENTAL_TARGET: Solute carrier family 22 member 6 (SLC22A6) (Rattus norvegicus, UniProt O35956)
ASSAY_SUMMARY: TP_TRANSPORTER: inhibition of PAH uptake (PAH: 2 uM, Benzydamine: 1000 uM) in Xenopus laevis oocytes
Format: functional, cell-based, Oocyte
STATED_CONDITIONS: probe PAH
ENDPOINT: inhibition at 1000 µM (%)
Just the number in %, nothing appended.

query: Would you kindly share the measured inhibition at 1000 µM for NCc1ccccc1 ?
result: 60

---

EXPERIMENTAL_TARGET: Solute carrier family 22 member 6 (SLC22A6) (Rattus norvegicus)
ASSAY_SUMMARY: TP_TRANSPORTER: inhibition of PAH uptake (PAH: 2 uM, […]: 1000 uM) in Xenopus laevis oocytes
Format: functional, cell-based, Oocyte
STATED_CONDITIONS: probe PAH
ENDPOINT: inhibition at 1000 µM (%)
Just the number in %, nothing appended.

query: Would you kindly share the measured inhibition at 1000 µM for Cc1c(N(C)C)c(=O)n(-c2ccccc2)n1C ?
result: 23.8

---

EXPERIMENTAL_TARGET: Solute carrier family 22 member 6 (SLC22A6) (Rattus norvegicus, UniProt O35956)
Sequence (O35956 whole entry): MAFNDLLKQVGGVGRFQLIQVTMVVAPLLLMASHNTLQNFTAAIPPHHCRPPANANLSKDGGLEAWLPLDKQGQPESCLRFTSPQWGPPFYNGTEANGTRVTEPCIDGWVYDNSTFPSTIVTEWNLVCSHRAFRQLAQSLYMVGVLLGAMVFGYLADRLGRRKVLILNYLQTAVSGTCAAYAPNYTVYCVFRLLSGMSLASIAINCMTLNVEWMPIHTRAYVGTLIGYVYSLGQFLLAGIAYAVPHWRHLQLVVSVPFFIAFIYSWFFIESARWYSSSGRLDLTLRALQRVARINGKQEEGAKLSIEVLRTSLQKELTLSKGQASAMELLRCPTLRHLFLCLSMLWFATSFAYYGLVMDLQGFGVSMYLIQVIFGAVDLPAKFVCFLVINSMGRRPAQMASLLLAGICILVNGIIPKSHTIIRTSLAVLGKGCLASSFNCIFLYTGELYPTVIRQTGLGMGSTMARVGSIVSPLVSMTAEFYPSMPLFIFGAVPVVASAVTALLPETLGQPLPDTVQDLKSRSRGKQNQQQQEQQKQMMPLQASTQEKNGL
ASSAY_SUMMARY: TP_TRANSPORTER: inhibition of PAH uptake (PAH: 2 uM, Meclofenamate: 1000 uM) in Xenopus laevis oocytes
Type: functional, cell-based, Oocyte
STATED_CONDITIONS: probe PAH
ENDPOINT: inhibition at 1000 µM (%)
Just the number in %, nothing appended.

query: Would you kindly share the measured inhibition at 1000 µM for Cc1ccc(Cl)c(Nc2ccccc2C(=O)O)c1Cl [MECLOFENAMIC ACID] ?
result: 99.8

---

EXPERIMENTAL_TARGET: UniProtKB O35956
ASSAY_SUMMARY: TP_TRANSPORTER: inhibition of PAH uptake (PAH: 2 uM, Diclofenac: 1000 uM) in Xenopus laevis oocytes
Type: functional, cell-based, Oocyte
STATED_CONDITIONS: probe PAH
ENDPOINT: inhibition at 1000 µM (%)
Just the number in %, nothing appended.

query: Would you kindly share the measured inhibition at 1000 µM for O=C(O)Cc1ccccc1Nc1c(Cl)cccc1Cl ?
result: 100
